# credit: patent US9637483B2

biological target: TYK2 (Homo sapiens, UniProt P29597); construct: purchased Invitrogen; assay: TYK2 enzyme inhibition test (LANCE method); format: biochemical; conditions: 1 μM test compound; read-out: TYK2 enzyme inhibitory activity (%, 1 μM)
Sequence (P29597 whole entry): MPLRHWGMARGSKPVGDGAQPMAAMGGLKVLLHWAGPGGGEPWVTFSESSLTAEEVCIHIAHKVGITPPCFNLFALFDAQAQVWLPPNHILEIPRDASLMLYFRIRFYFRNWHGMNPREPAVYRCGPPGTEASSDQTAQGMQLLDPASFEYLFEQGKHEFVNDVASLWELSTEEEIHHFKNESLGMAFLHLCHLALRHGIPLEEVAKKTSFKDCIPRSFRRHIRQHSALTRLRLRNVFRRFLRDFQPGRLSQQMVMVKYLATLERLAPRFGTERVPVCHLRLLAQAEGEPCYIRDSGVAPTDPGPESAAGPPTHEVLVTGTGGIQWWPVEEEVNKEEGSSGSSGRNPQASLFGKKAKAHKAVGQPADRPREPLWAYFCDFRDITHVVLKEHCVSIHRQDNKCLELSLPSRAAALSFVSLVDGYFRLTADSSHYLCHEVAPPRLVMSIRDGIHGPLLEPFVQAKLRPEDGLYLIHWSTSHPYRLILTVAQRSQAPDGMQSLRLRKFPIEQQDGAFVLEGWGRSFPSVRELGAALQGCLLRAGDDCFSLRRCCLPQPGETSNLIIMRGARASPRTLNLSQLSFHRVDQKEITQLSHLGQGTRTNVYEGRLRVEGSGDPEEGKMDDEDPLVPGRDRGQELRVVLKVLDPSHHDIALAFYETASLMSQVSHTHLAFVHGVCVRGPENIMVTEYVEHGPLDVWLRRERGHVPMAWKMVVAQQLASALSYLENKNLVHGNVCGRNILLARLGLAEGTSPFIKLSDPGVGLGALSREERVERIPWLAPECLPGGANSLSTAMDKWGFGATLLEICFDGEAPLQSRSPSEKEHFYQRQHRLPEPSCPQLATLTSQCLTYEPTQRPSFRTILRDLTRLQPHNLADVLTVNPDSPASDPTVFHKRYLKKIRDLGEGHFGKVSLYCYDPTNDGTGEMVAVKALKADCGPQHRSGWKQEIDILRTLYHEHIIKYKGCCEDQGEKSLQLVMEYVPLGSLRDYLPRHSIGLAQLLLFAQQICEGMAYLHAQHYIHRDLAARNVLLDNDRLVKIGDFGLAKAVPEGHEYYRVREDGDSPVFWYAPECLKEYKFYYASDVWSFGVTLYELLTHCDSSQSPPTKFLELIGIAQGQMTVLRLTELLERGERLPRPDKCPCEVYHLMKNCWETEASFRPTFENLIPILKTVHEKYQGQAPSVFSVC
endpoint.name: inhibition at 1 µM (%)

C[C@@H](C1CC1)n1cc(-c2cc(N3CCS(=O)(=O)CC3)n(C)n2)c2[nH]nc(N)c2c1=O [Example 96] ... 100
CC(C)[C@H](C)n1cc(-c2cc(N3CCC(F)(F)C3)n(C)n2)c2[nH]nc(N)c2c1=O [Example 106] ... 100
COCC(=O)N1CCN(c2cc(-c3cn([C@@H](C)C(C)C)c(=O)c4c(N)n[nH]c34)nn2C)CC1 [Example 17] ... 100
CC(C)C(C)n1cc(-c2cc(C(C)(C)O)n(C)n2)c2[nH]nc(N)c2c1=O (stereo not shown) [Example 2] ... 99

---

target: JAK3 (Homo sapiens, UniProt P52333); construct: purchased Invitrogen; assay: JAK3 enzyme inhibition test (LANCE method); format: biochemical; conditions: 1 μM test compound; read-out: JAK3 enzyme inhibitory activity (%, 1 μM)
Sequence (P52333 whole entry): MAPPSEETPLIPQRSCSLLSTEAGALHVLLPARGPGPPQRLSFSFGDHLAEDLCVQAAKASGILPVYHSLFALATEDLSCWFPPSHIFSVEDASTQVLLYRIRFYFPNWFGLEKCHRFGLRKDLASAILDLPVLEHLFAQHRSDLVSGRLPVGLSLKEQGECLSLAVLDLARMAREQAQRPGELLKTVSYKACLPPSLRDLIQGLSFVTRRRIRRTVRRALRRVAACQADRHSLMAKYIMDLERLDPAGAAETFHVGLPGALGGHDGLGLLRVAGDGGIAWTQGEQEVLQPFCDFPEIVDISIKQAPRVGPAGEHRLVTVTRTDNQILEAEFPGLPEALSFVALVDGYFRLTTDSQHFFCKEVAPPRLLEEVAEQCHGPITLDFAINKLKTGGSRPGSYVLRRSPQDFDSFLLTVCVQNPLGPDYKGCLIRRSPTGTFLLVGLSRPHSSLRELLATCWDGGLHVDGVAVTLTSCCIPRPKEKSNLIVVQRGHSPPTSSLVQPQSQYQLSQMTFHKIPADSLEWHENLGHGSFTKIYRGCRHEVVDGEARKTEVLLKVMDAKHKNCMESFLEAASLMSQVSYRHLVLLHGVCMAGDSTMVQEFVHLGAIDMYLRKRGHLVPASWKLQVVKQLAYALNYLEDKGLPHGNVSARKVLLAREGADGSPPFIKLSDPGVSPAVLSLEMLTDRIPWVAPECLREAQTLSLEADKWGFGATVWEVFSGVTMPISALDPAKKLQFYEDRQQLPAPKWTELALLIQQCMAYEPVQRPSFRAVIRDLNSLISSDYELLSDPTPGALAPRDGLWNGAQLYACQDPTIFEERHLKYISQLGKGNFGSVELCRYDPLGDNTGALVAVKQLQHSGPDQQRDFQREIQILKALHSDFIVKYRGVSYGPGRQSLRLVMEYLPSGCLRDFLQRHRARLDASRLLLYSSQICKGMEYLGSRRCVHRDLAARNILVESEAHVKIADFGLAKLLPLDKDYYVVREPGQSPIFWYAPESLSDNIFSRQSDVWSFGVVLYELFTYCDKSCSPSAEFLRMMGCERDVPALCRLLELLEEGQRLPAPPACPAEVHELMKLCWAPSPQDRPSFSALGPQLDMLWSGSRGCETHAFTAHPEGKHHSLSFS
endpoint.name: inhibition at 1 µM (%)

CC(C)[C@H](C)n1cc(-c2cc(N3CCN(S(=O)(=O)C(C)C)CC3)n(C)n2)c2[nH]nc(N)c2c1=O ... 99
CC(C)[C@H](C)n1cc(-c2cc(C3CCOCC3)n(C)n2)c2[nH]nc(N)c2c1=O ... 100
CC(C)[C@H](C)n1cc(-c2cc(N3CC[C@H](O)C3)n(C)n2)c2[nH]nc(N)c2c1=O ... 99
COC[C@H]1CCCN1c1cc(-c2cn(C(C3CC3)C3CC3)c(=O)c3c(N)n[nH]c23)nn1C ... 100
Cn1nc(-c2cn(C(C3CC3)C3CC3)c(=O)c3c(N)n[nH]c23)cc1N1C2CCC1COC2 ... 101
CO[C@@H]1CCN(c2cc(-c3cn([C@@H](C)C(C)C)c(=O)c4c(N)n[nH]c34)nn2C)C1 ... 99
CN(C[C@H]1CCCN1c1cc(-c2cn(C(C3CC3)C3CC3)c(=O)c3c(N)n[nH]c23)nn1C)S(C)(=O)=O ... 99
COC1(c2cc(-c3cn([C@@H](C)C(C)C)c(=O)c4c(N)n[nH]c34)nn2C)CN(C(=O)C(C)C)C1 ... 98
CC(C)[C@H](C)n1cc(-c2cc(N3CCOCC3=O)n(C)n2)c2[nH]nc(N)c2c1=O ... 100
CC(C)C(C)n1cc(-c2cc(C(C)(C)O)n(C)n2)c2[nH]nc(N)c2c1=O (stereo not drawn) ... 99
CC(C)[C@H](C)n1cc(-c2cc(N3CCCOCC3)n(C)n2)c2[nH]nc(N)c2c1=O ... 99
CC(C)[C@H](C)n1cc(-c2cc(N3CCCCC3)n(C)n2)c2[nH]nc(N)c2c1=O ... 99
CC(C)N(C)c1cc(-c2cn(-c3c(F)cccc3C#N)c(=O)c3c(N)n[nH]c23)nn1C ... 97
CO[C@]1(c2cc(-c3cn(-c4c(F)cccc4F)c(=O)c4c(N)n[nH]c34)nn2C)C[C@H](C(=O)N(C)C)C1 ... 100
CC1CN(c2cc(-c3cn([C@@H](C)C(C)C)c(=O)c4c(N)n[nH]c34)nn2C)CCO1 (stereo partly drawn) ... 99

---

target: TYK2 (Homo sapiens, UniProt P29597); construct: purchased Invitrogen; assay: TYK2 enzyme inhibition test (LANCE method); type: biochemical; conditions: 1 μM test compound; read-out: TYK2 enzyme inhibitory activity (%, 1 μM)
endpoint.name: inhibition at 1 µM (%)

CC(C)[C@H](C)n1cc(-c2cc(C3(O)CCC(F)(F)CC3)n(C)n2)c2[nH]nc(N)c2c1=O [Example 37] ... 99
COC1(c2cc(-c3cn(-c4c(F)cccc4F)c(=O)c4c(N)n[nH]c34)nn2C)CN(S(=O)(=O)C(C)C)C1 [Example 144] ... 100
COC(C)(C)c1cc(-c2cn([C@@H](C)C(C)C)c(=O)c3c(N)n[nH]c23)nn1C [Example 109] ... 99
CN(C)C[C@H]1CCCN1c1cc(-c2cn(C(C3CC3)C3CC3)c(=O)c3c(N)n[nH]c23)nn1C [Example 145] ... 100
CC(C)[C@H](C)n1cc(-c2cc(C(=O)N(C)C3CCCC3)n(C)n2)c2[nH]nc(N)c2c1=O [Example 50] ... 99
CC(C)N(C)c1cc(-c2cn(-c3c(F)cccc3C#N)c(=O)c3c(N)n[nH]c23)nn1C [Example 122] ... 101
CC(n1cc(-c2cc(N3CCOCC3)n(C)n2)c2[nH]nc(N)c2c1=O)C1(C)CC1 (stereo not shown) [Example 81] ... 99

---

Target: TYK2 (Homo sapiens)
Construct: purchased Invitrogen
Assay: TYK2 enzyme inhibition test (LANCE method)
Assay type: biochemical
Conditions: 1 μM test compound; 1 µM
Description: TYK2 enzyme inhibitory activity of test compounds was measured by the LANCE method (PerkinElmer). First, a test compound diluted with assay buffer (50 mM HEPES (pH 7.5), 10 mM MgCl2, 1 mM EGTA, 2 mM DTT, 0.01% Tween20, 0.01% BSA) was added to a 384-well plate by 2 μL each. Then, a TYK2 (Invitrogen) solution and a fluorescence-labeled peptide substrate (ULight-JAK1, PerkinElmer) solution diluted with assay buffer to 375 ng/mL and 300 nM, respectively, were added by 2 μL each. […]
endpoint.name: TYK2 enzyme inhibitory activity (%, 1 μM) (%)

CC1CN(c2cc(-c3cn([C@@H](C)C(C)C)c(=O)c4c(N)n[nH]c34)nn2C)CCO1 (stereo partly shown) [Example 60] ... 99
CC1CCCCC1n1cc(-c2cc(N3CCOCC3)n(C)n2)c2[nH]nc(N)c2c1=O (stereo not shown) [Example 155] ... 101
CC1CCCCC1n1cc(-c2cc(C(C)(C)O)n(C)n2)c2[nH]nc(N)c2c1=O (stereo not shown) [Example 118] ... 100
Cn1nc(-c2cn(C3CCCC3(C)C)c(=O)c3c(N)n[nH]c23)cc1CN1CCS(=O)(=O)CC1 (stereo not shown) ... 92
CC1CCCCC1n1cc(-c2cc(N3CCOCC3)n(C)n2)c2[nH]nc(N)c2c1=O (stereo not shown) [Example 154] ... 102
CC(C)[C@H](C)n1cc(-c2cc(N3CCC(C)(O)C3)n(C)n2)c2[nH]nc(N)c2c1=O (stereo partly shown) [Example 64] ... 100
CC(C)[C@H](C)n1cc(-c2cc(N3CCCC3CN(C)C)n(C)n2)c2[nH]nc(N)c2c1=O (stereo partly shown) ... 100
CC1CN(c2cc(-c3cn([C@@H](C)C(C)C)c(=O)c4c(N)n[nH]c34)nn2C)CCO1 (stereo partly shown) [Example 59] ... 100
CC(C)C(C#N)n1cc(-c2cc(N3CCOCC3)n(C)n2)c2[nH]nc(N)c2c1=O (stereo not shown) ... 95
CC(C)[C@H](C)n1cc(-c2cc(N3CCC(C)(O)C3)n(C)n2)c2[nH]nc(N)c2c1=O (stereo partly shown) [Example 63] ... 99
CC1CCCCC1n1cc(-c2cc(C(C)(C)O)n(C)n2)c2[nH]nc(N)c2c1=O (stereo not shown) [Example 119] ... 100
COC1(c2cc(-c3cn(C(C#N)C(C)C)c(=O)c4c(N)n[nH]c34)nn2C)CCC(F)(F)CC1 (stereo not shown) [Example 138] ... 99
CC1CCCCC1n1cc(-c2cc(N3CCOCC3)n(C)n2)c2[nH]nc(N)c2c1=O (stereo not shown) [Example 153] ... 103
CC1CCCCC1n1cc(-c2cc(C(C)(C)O)n(C)n2)c2[nH]nc(N)c2c1=O (stereo not shown) [Example 120] ... 101
COC1(c2cc(-c3cn(C(C#N)C(C)C)c(=O)c4c(N)n[nH]c34)nn2C)CCC(F)(F)CC1 (stereo not shown) [Example 139] ... 93
Cn1nc(-c2cn(C3CCCC3(C)C)c(=O)c3c(N)n[nH]c23)cc1N1CCOCC1 (stereo not shown) ... 96

---

biological target: JAK2 (Homo sapiens, UniProt O60674); construct: purchased Invitrogen; test: JAK2 enzyme inhibition test (LANCE method); format: biochemical; conditions: 1 μM test compound; read-out: JAK2 enzyme inhibitory activity (%, 1 μM)
Sequence (O60674 whole entry): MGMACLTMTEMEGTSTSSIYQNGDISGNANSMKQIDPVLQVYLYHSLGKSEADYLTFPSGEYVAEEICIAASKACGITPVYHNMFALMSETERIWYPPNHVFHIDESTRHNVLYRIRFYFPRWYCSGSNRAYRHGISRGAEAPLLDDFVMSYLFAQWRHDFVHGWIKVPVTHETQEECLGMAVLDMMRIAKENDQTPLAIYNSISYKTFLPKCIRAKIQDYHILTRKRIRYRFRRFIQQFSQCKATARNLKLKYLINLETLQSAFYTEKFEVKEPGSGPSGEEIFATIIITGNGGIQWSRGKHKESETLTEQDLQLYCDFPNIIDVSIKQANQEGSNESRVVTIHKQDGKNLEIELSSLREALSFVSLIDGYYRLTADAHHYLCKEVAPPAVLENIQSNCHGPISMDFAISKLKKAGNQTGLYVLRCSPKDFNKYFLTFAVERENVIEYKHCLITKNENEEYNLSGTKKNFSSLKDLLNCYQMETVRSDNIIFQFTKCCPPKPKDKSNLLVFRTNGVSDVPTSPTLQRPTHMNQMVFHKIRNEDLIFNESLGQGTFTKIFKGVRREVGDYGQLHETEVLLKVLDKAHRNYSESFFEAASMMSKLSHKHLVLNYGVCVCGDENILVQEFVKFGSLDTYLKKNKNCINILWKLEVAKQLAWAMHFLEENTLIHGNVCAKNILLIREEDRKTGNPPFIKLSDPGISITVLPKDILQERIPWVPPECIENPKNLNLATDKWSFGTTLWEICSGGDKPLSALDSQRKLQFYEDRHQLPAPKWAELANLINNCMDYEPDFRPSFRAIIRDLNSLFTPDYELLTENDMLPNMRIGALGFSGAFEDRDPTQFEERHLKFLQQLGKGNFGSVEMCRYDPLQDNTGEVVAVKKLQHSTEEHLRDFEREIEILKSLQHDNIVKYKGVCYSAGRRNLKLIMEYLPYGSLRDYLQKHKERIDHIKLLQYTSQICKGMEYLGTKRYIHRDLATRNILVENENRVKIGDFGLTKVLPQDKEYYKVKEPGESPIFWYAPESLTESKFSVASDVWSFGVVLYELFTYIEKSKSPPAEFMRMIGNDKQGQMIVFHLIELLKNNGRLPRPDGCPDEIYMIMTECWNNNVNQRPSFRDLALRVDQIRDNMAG
endpoint.name: inhibition at 1 µM (%)

CC(C)[C@H](C)n1cc(-c2cc(N3CCCC3CN(C)C)n(C)n2)c2[nH]nc(N)c2c1=O (some centres unmarked) [Example 103] ... 93
CC(C)C(C)n1cc(-c2cc(C(C)(C)O)n(C)n2)c2[nH]nc(N)c2c1=O (centres unmarked) [Example 2] ... 98
CC(C)C(C1CC1)n1cc(-c2cc(N3CCOCC3)n(C)n2)c2[nH]nc(N)c2c1=O (centres unmarked) [Example 115] ... 91
CC(C)[C@H](C)n1cc(-c2cc(N3CCCOCC3)n(C)n2)c2[nH]nc(N)c2c1=O [Example 13] ... 99
CC(C)C(C(N)=O)n1cc(-c2cc(N3CCOCC3)n(C)n2)c2[nH]nc(N)c2c1=O (centres unmarked) [Example 85] ... 86
CO[C@@H]1CCN(c2cc(-c3cn(C(C4CC4)C4CC4)c(=O)c4c(N)n[nH]c34)nn2C)C1 [Example 164] ... 99
CC(=O)NCC(C)(C)c1cc(-c2cn([C@@H](C)C(C)C)c(=O)c3c(N)n[nH]c23)nn1C [Example 51] ... 97
CC(C)[C@H](C)n1cc(-c2cc(N3CCC(F)(F)C3)n(C)n2)c2[nH]nc(N)c2c1=O [Example 106] ... 99
